Listed below: newLeafAnthocyanins (Dev.) values for each entry.
Test system: Arabidopsis thaliana plants
Assay: Phenotypic analysis of herbicide-treated Arabidopsis plants (SOA1)
Format: in vivo
Conditions: SOA1; numeric value standardized to mock treated

compound | newLeafAnthocyanins (Dev.)
O=C(O)COc1ccc(Cl)cc1Cl [2,4-D] | 0
CP(=O)(O)CCC(N)C(=O)O (centres unmarked) [Glufosinate] | 0
CN(C)C(=O)Nc1ccc(Cl)c(Cl)c1 [Diuron] | 0
c1cc[n+]2c(c1)-c1cccc[n+]1CC2 [Diquat] | 0
O=C(O)CNCP(=O)(O)O [Glyphosate] | 1

====

Listed below: Symptom Class values for each entry.
System: Arabidopsis thaliana plants
Assay: Phenotypic analysis of herbicide-treated Arabidopsis plants (SOA1)
Type: in vivo
Conditions: three-week-old Arabidopsis plants treated with herbicide; phenotypes of FIG. 12

compound | Symptom Class
CN(C)C(=O)Nc1ccc(Cl)c(Cl)c1 | 7
C[n+]1ccc(-c2cc[n+](C)cc2)cc1 | 7
O=C(O)CNCP(=O)(O)O [Glyphosate] | 4
O=C(O)COc1ccc(Cl)cc1Cl | 5
CP(=O)(O)CCC(N)C(=O)O (stereo not drawn) [Glufosinate] | 3
c1cc[n+]2c(c1)-c1cccc[n+]1CC2 | 7
